- Read-out: Glutathione S-Transferase (GSTA2), GSTA2 (gene 2939)
- assay method text: LTEA_HepaRG_GSTA2: Life Technologies and Expression Analysis (LTEA) Assay for Glutathione S-Transferase (GSTA2) using HepaRG (AID 2283497)
- condition info: mRNA level, 48 h; actives raise or lower the signal
Calls of active or inactive are those of the source. Rule for the calls: active = hit-call score of the fitted dose curve at least 0.9, where 1 is the maximum; inactive = score below 0.9.
# valid calls are label 1 (active), label 0 (inactive); nothing else

A selection of reference data follows.
{"compound": "Fc1ccccc1[C@@H](F)COC1CCC(Nc2ncnc3[nH]ncc23)CC1 (stereo partly specified)", "label": "label 1"}
{"compound": "COC(=O)c1c(Cl)c(Cl)c(C(=O)OC)c(Cl)c1Cl", "label": "label 0"}
{"compound": "CCCCCCCCCCCCCCCO", "label": "label 0"}

Test call for this compound, please: O=C(CCCCCCCCc1cccnc1)N1CCC(C=C(c2ccccc2)c2ccccc2)CC1
label 1

Please answer likewise for Nc1cccc(N)c1
label 0

Please answer likewise for CCCCC(CC)COC(=O)c1ccc(C(=O)OCC(CC)CCCC)cc1 (stereo unspecified)
label 0

Just for reference, PubChem BioAssay (EPA / NIEHS) is where these values come from.
